experiment: Plasma pharmacokinetics after single subcutaneous administration (LC-MS); type: in vivo, Sprague-Dawley rats; settings: male, Sprague-Dawley, sc; Dose 16.6 mg/kg s.c., rat plasma
Where a SMILES comes first, the peptide text is derived from it. [ ]: non-standard residue; d: D form. αMeF = C[C@](N)(Cc1ccccc1)C(=O)O; Aib = CC(C)(N)C(=O)O
Metric: AUC(0-inf)
Provide the measurement as a number trailed by its unit.

Form field AUC(0-inf), entry CC(=O)N[C@@H](CCCNC(=N)N)C(=O)NC(C)(C)C(=O)N[C@@H](CCCNC(=N)N)C(=O)N[C@@](C)(Cc1ccccc1)C(N)=O [Ac-Arg-Aib-Arg-α(Me)Phe-NH2] (Ac-R[Aib]R[αMeF]-NH2) : 39300 ng·h/mL
